So I've got a bunch of molecules here, and I need their IC50 values.
# tested on: Mycobacterium tuberculosis mycothione reductase (MtrMtb) (Mycobacterium tuberculosis, UniProt P9WHH3)
# Sequence (P9WHH3 whole entry): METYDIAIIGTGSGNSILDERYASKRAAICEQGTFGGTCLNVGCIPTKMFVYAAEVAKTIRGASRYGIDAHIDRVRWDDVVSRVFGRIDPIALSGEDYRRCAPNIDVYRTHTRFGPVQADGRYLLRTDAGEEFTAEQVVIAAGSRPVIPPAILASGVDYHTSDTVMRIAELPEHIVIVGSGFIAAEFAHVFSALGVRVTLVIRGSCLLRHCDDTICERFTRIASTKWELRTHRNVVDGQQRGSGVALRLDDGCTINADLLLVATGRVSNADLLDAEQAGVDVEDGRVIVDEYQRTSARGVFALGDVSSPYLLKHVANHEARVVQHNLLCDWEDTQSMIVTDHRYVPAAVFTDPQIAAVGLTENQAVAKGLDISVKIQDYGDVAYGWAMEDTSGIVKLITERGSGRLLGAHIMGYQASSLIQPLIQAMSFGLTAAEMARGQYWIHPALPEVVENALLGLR
# experimental protocol: MtrMtb luminescence-coupled enzymatic assay, confirmation screen (11-point dose-response)
# Format: biochemical
# condition parameters: sulfonylamine series, fragment molecules, reference compounds; read-out: IC50 (µM) MtrMtb
Numbers only, in µM.

Example entries begin here.
>>> result_value("Cn1ccnc1C(=O)c1nccn1C [Respiri-1210]")
6.11
>>> result_value("CN1C(=O)C2N=CNC2N(C)C1=O (stereo not shown) [Respiri-1209]")
5.63
>>> result_value("CCNc1cc(Oc2ccc(NS(=O)(=O)c3ccc(C)cc3)c(C(=O)O)c2)ccc1NS(=O)(=O)c1ccc(C)cc1 [Respiri-1031]")
2.16

// switching to the query molecule
Identify measured IC50 associated with Cc1ccn(-c2ncccn2)c(=O)c1C#N [Respiri-1211]
13
